// reported pIC50 for each item listed
- TGT: Acetylcholinesterase (Torpedo californica, UniProt P04058)
- Sequence (P04058 whole entry): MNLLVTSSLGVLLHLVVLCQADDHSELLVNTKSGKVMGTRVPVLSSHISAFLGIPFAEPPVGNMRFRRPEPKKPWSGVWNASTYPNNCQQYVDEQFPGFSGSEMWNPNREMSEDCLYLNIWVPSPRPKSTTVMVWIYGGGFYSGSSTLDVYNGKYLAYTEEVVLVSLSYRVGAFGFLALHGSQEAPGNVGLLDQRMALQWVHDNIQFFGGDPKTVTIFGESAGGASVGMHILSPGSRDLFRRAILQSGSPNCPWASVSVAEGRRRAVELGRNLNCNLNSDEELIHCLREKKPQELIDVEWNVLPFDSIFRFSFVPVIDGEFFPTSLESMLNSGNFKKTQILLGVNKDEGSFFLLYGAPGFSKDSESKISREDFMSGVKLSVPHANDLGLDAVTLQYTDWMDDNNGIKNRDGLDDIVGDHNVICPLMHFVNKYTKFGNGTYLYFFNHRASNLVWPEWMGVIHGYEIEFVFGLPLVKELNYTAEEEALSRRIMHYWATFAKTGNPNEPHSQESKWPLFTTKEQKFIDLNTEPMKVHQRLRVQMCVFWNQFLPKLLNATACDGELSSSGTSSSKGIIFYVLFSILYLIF
- MEASUREMENT_DESCRIPTION: Inhibition of Torpedo californica AChE using acetylthiocholine iodide as substrate preincubated for 10 mins followed by substrate addition measured for 5 mins by Ellman's method
- Assay type: single protein, Tetronarce californica
pIC50: −log10 of the molar value.
QUANTITY_NAME: pIC50

Cc1ccccc1C[n+]1ccc(Cn2c3c(c4ccccc42)CCCC3)cc1 ... 5.08
Clc1cccc(C[n+]2ccc(Cn3c4c(c5ccccc53)CCCC4)cc2)c1 ... 5.32
Fc1ccccc1C[n+]1cccc(Cn2c3c(c4ccccc42)CCCC3)c1 ... 4.17
Fc1cccc(C[n+]2ccc(Cn3c4c(c5ccccc53)CCCC4)cc2)c1 ... 4.46
Cc1ccccc1C[n+]1cccc(Cn2c3c(c4ccccc42)CCCC3)c1 ... 4.33

----------
- TGT: Cholinesterase (Equus caballus, UniProt P81908)
- Sequence (P81908 whole entry): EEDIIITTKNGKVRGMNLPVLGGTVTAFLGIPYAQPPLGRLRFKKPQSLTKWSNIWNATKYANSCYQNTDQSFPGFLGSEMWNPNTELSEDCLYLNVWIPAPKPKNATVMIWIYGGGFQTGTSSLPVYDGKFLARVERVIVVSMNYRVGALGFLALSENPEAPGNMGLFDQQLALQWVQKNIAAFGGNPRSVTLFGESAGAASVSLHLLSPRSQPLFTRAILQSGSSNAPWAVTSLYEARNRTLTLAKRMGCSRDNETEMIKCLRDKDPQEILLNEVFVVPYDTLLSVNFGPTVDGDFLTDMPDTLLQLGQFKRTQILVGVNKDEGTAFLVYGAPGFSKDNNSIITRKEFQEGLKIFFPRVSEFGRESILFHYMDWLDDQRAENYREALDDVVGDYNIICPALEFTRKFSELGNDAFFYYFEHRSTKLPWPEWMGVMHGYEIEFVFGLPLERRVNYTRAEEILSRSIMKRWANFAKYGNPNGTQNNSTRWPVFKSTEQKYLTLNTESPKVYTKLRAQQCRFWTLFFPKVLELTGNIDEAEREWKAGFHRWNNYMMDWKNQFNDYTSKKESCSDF
- MEASUREMENT_DESCRIPTION: Inhibition of equine serum BChE using butyrylthiocholine iodide as substrate preincubated for 15 mins followed by substrate addition measured after 15 mins by Ellman's method
pIC50: −log10 of the molar value.
QUANTITY_NAME: pIC50

O=C(NCc1cc[n+](Cc2cccc(F)c2)cc1)c1cc2ccccc2oc1=O ... 4.92

----------
- TGT: Acetylcholinesterase (Torpedo californica)
- MEASUREMENT_DESCRIPTION: Inhibition of Torpedo californica AChE using acetylthiocholine iodide as substrate preincubated for 15 mins followed by substrate addition by Ellman's method
- Design: species or system Tetronarce californica
pIC50: −log10 of the molar value.
QUANTITY_NAME: pIC50

O=C1CCC(=O)N1Cc1cc[n+](Cc2cccc(F)c2)cc1 ... 5.14
O=C1c2ccccc2C(=O)N1Cc1cc[n+](Cc2ccccc2F)cc1 ... 6.11

----------
- TGT: Cholinesterase (Equus caballus, UniProt P81908)
- MEASUREMENT_DESCRIPTION: Inhibition of equine serum BChE using butyrylthiocholine iodide as substrate preincubated for 10 mins followed by substrate addition measured for 5 mins by Ellman's method
# note: boundary value 500 nM maps to Not fulfilled; IC50 below it maps to Fulfilled

Fc1cccc(C[n+]2cccc(Cn3c4c(c5ccccc53)CCCC4)c2)c1 ... Not fulfilled
Cc1ccc(C[n+]2cccc(Cn3c4c(c5ccccc53)CCCC4)c2)cc1 ... Fulfilled
Fc1ccc(C[n+]2ccc(Cn3c4c(c5ccccc53)CCCC4)cc2)cc1 ... Not fulfilled
Fc1ccc(C[n+]2cccc(Cn3c4c(c5ccccc53)CCCC4)c2)cc1 ... Not fulfilled
Cc1cccc(C[n+]2ccc(Cn3c4c(c5ccccc53)CCCC4)cc2)c1 ... Fulfilled
c1ccc(C[n+]2cccc(Cn3c4c(c5ccccc53)CCCC4)c2)cc1 ... Fulfilled
Clc1ccccc1C[n+]1cccc(Cn2c3c(c4ccccc42)CCCC3)c1 ... Fulfilled
Cc1ccccc1C[n+]1ccc(Cn2c3c(c4ccccc42)CCCC3)cc1 ... Fulfilled
Cc1ccc(C[n+]2ccc(Cn3c4c(c5ccccc53)CCCC4)cc2)cc1 ... Not fulfilled

----------
- TGT: Cholinesterase (Equus caballus, UniProt P81908)
- MEASUREMENT_DESCRIPTION: Inhibition of equine serum BChE using butyrylthiocholine iodide as substrate preincubated for 15 mins followed by substrate addition by Ellman's method
pIC50: −log10 of the molar value.
QUANTITY_NAME: pIC50

O=C1c2ccccc2C(=O)N1Cc1cc[n+](Cc2ccccc2F)cc1 ... 5.06
O=C1CCC(=O)N1Cc1cc[n+](Cc2cccc(F)c2)cc1 ... 4.34
